- Assay Notes: Phase I study: pharmacokinetics after single and multiple oral doses
- Format: in vivo
- Condition Info: human, plasma, oral, 10 mg, multiple dose 10 mg, Day 11
- Experimental: Study Design: Single center, double-blind, randomized, placebo-controlled, single ascending dose followed by multiple ascending dose study. […] Plasma concentrations of Compound 1 were determined using a validated LC/MS method. […] Analysis of Samples: Concentrations of Compound 1 was determined in plasma samples collected from subjects. Similarly, concentrations of LTB4 in plasma and urinary LTE4 were determined in blood and urine samples collected.
Test Readout: Tmax (h)
# value in h; strip the unit string

Tmax lookup needed for "CCOc1ccc(-c2ccc(Cn3c(CC(C)(C)C(=O)[O-])c(SC(C)(C)C)c4cc(OCc5ccc(C)cn5)ccc43)cc2)cn1.[Na+]" , thanks.
10

====

- Assay Notes: Phase I study: pharmacokinetics after single and multiple oral doses
- Assay type: in vivo
- Condition Info: human, plasma, po, 600 mg, single dose 600 mg, oral solution; read-out: t1/2 (converted)
Test Readout: half-life (h)
# value in h; strip the unit string

half-life lookup needed for "CCOc1ccc(-c2ccc(Cn3c(CC(C)(C)C(=O)[O-])c(SC(C)(C)C)c4cc(OCc5ccc(C)cn5)ccc43)cc2)cn1.[Na+]" , thanks.
14.1

====

- Assay Notes: Phase I study: pharmacokinetics after single and multiple oral doses
- Assay type: in vivo
- Condition Info: human, plasma, oral, 150 mg, multiple dose 150 mg, Day 1; read-out: AUClast
- Protocol: Study Design: Single center, double-blind, randomized, placebo-controlled, single ascending dose followed by multiple ascending dose study. […] Plasma concentrations of Compound 1 were determined using a validated LC/MS method. […] Analysis of Samples: Concentrations of Compound 1 was determined in plasma samples collected from subjects. Similarly, concentrations of LTB4 in plasma and urinary LTE4 were determined in blood and urine samples collected.
Test Readout: AUC(0-t)
Include the unit after the number when you answer.

AUC(0-t) lookup needed for CCOc1ccc(-c2ccc(Cn3c(CC(C)(C)C(=O)[O-])c(SC(C)(C)C)c4cc(OCc5ccc(C)cn5)ccc43)cc2)cn1.[Na+] [Compound 2] , thanks.
16 µM·h

====

- Assay Notes: Single-dose pharmacokinetics in beagle dogs
- Assay type: in vivo, female beagle dogs
- Condition Info: female, beagle, dog, plasma, po, 5 mg/kg, 0.5% Methylcellulose, Fed
Test Readout: AUC(0-inf) (ng·h/mL)
# value in ng·h/mL; strip the unit string

AUC(0-inf) lookup needed for CCOc1ccc(-c2ccc(Cn3c(CC(C)(C)C(=O)[O-])c(SC(C)(C)C)c4cc(OCc5ccc(C)cn5)ccc43)cc2)cn1.[Na+] [Compound 2] , thanks.
24300

====

- Assay Notes: Phase I study: pharmacokinetics after single and multiple oral doses
- Format: in vivo
- Condition Info: human, plasma, oral, 150 mg, multiple dose 150 mg, Day 11
Test Readout: Cmax
Include the unit after the number when you answer.

Cmax lookup needed for "CCOc1ccc(-c2ccc(Cn3c(CC(C)(C)C(=O)[O-])c(SC(C)(C)C)c4cc(OCc5ccc(C)cn5)ccc43)cc2)cn1.[Na+]" , thanks.
3000 nM

====

- Assay Notes: Phase I study: pharmacokinetics after single and multiple oral doses
- Type: in vivo
- Condition Info: human, plasma, oral, 50 mg, multiple dose 50 mg, Day 1; read-out: t½ (converted)
Test Readout: half-life (h)
# value in h; strip the unit string

half-life lookup needed for "CCOc1ccc(-c2ccc(Cn3c(CC(C)(C)C(=O)[O-])c(SC(C)(C)C)c4cc(OCc5ccc(C)cn5)ccc43)cc2)cn1.[Na+]" , thanks.
19

====

- Assay Notes: Single-dose pharmacokinetics in beagle dogs
- Assay type: in vivo, female beagle dogs
- Condition Info: female, beagle, dog, plasma, po, 6.5 mg/kg, 50 mg Pill, Fed
Test Readout: bioavailability (%)
# value in %; strip the unit string

bioavailability lookup needed for "CCOc1ccc(-c2ccc(Cn3c(CC(C)(C)C(=O)[O-])c(SC(C)(C)C)c4cc(OCc5ccc(C)cn5)ccc43)cc2)cn1.[Na+]" , thanks.
8.4

====

- Assay Notes: Phase I study: pharmacokinetics after single and multiple oral doses
- Format: in vivo
- Condition Info: human, plasma, oral, 10 mg, multiple dose 10 mg, Day 11; read-out: t½ (converted)
Test Readout: half-life (h)
# value in h; strip the unit string

half-life lookup needed for "CCOc1ccc(-c2ccc(Cn3c(CC(C)(C)C(=O)[O-])c(SC(C)(C)C)c4cc(OCc5ccc(C)cn5)ccc43)cc2)cn1.[Na+]" , thanks.
50

====

- Assay Notes: Phase I study: pharmacokinetics after single and multiple oral doses
- Format: in vivo
- Condition Info: human, plasma, oral, 10 mg, multiple dose 10 mg, Day 1; read-out: t½ (converted)
- Protocol: Study Design: Single center, double-blind, randomized, placebo-controlled, single ascending dose followed by multiple ascending dose study. […] Plasma concentrations of Compound 1 were determined using a validated LC/MS method. […] Analysis of Samples: Concentrations of Compound 1 was determined in plasma samples collected from subjects. Similarly, concentrations of LTB4 in plasma and urinary LTE4 were determined in blood and urine samples collected.
Test Readout: half-life
Include the unit after the number when you answer.

half-life lookup needed for "CCOc1ccc(-c2ccc(Cn3c(CC(C)(C)C(=O)[O-])c(SC(C)(C)C)c4cc(OCc5ccc(C)cn5)ccc43)cc2)cn1.[Na+]" , thanks.
32 h

====

- Assay Notes: Phase I study: pharmacokinetics after single and multiple oral doses
- Format: in vivo
- Condition Info: human, plasma, po, 300 mg, single dose 300 mg, oral solution
- Protocol: Study Design: Single center, double-blind, randomized, placebo-controlled, single ascending dose followed by multiple ascending dose study. […] Plasma concentrations of Compound 1 were determined using a validated LC/MS method. […] Analysis of Samples: Concentrations of Compound 1 was determined in plasma samples collected from subjects. Similarly, concentrations of LTB4 in plasma and urinary LTE4 were determined in blood and urine samples collected.
Test Readout: Cmax (nM)
# value in nM; strip the unit string

Cmax lookup needed for "CCOc1ccc(-c2ccc(Cn3c(CC(C)(C)C(=O)[O-])c(SC(C)(C)C)c4cc(OCc5ccc(C)cn5)ccc43)cc2)cn1.[Na+]" , thanks.
3000

====

- Assay Notes: Single-dose pharmacokinetics in beagle dogs
- Assay type: in vivo, female beagle dogs
- Condition Info: female, beagle, dog, plasma, po, 6.5 mg/kg, 50 mg Pill, Fasted
Test Readout: Tmax (h)
# value in h; strip the unit string

Tmax lookup needed for CCOc1ccc(-c2ccc(Cn3c(CC(C)(C)C(=O)[O-])c(SC(C)(C)C)c4cc(OCc5ccc(C)cn5)ccc43)cc2)cn1.[Na+] [Compound 2] , thanks.
2

====

- Assay Notes: Phase I study: pharmacokinetics after single and multiple oral doses
- Assay type: in vivo
- Condition Info: human, plasma, oral, 50 mg, multiple dose 50 mg, Day 11; read-out: t½ (converted)
Test Readout: half-life
Include the unit after the number when you answer.

half-life lookup needed for CCOc1ccc(-c2ccc(Cn3c(CC(C)(C)C(=O)[O-])c(SC(C)(C)C)c4cc(OCc5ccc(C)cn5)ccc43)cc2)cn1.[Na+] [Compound 2] , thanks.
25 h

====

- Assay Notes: Phase I study: pharmacokinetics after single and multiple oral doses
- Format: in vivo
- Condition Info: human, plasma, oral, 450 mg, multiple dose 450 mg, Day 1
Test Readout: Tmax (h)
# value in h; strip the unit string

Tmax lookup needed for "CCOc1ccc(-c2ccc(Cn3c(CC(C)(C)C(=O)[O-])c(SC(C)(C)C)c4cc(OCc5ccc(C)cn5)ccc43)cc2)cn1.[Na+]" , thanks.
2

====

- Assay Notes: Phase I study: pharmacokinetics after single and multiple oral doses
- Assay type: in vivo
- Condition Info: human, plasma, oral, 50 mg, multiple dose 50 mg, Day 1
Test Readout: Cmax

Cmax lookup needed for "CCOc1ccc(-c2ccc(Cn3c(CC(C)(C)C(=O)[O-])c(SC(C)(C)C)c4cc(OCc5ccc(C)cn5)ccc43)cc2)cn1.[Na+]" , thanks.
600 nM

====

- Assay Notes: Plasma binding (equilibrium dialysis)
- Format: in vitro ADME, Monkey (cynomologus)
- Condition Info: monkey plasma, read-out: % Bound (converted)
Test Readout: fraction unbound at 10 μM
Lab note: record just the number, no unit beside it.

fraction unbound at 10 μM lookup needed for CCOc1ccc(-c2ccc(Cn3c(CC(C)(C)C(=O)[O-])c(SC(C)(C)C)c4cc(OCc5ccc(C)cn5)ccc43)cc2)cn1.[Na+] [Compound 2] , thanks.
0.003

====

- Assay Notes: Phase I study: pharmacokinetics after single and multiple oral doses
- Type: in vivo
- Condition Info: human, plasma, oral, 50 mg, multiple dose 50 mg, Day 1
Test Readout: Tmax (h)
# value in h; strip the unit string

Tmax lookup needed for CCOc1ccc(-c2ccc(Cn3c(CC(C)(C)C(=O)[O-])c(SC(C)(C)C)c4cc(OCc5ccc(C)cn5)ccc43)cc2)cn1.[Na+] [Compound 2] , thanks.
4.2

====

- Assay Notes: Phase I study: pharmacokinetics after single and multiple oral doses
- Format: in vivo
- Condition Info: human, plasma, po, 150 mg, single dose 150 mg, oral solution
Test Readout: Cmax (µM)
# value in µM; strip the unit string

Cmax lookup needed for CCOc1ccc(-c2ccc(Cn3c(CC(C)(C)C(=O)[O-])c(SC(C)(C)C)c4cc(OCc5ccc(C)cn5)ccc43)cc2)cn1.[Na+] [Compound 2] , thanks.
2.2
